- TARGET_OF_ASSAY: MATE2K (Homo sapiens, UniProt Q86VL8)
- Sequence (Q86VL8 1-566 isoform Q86VL8-3): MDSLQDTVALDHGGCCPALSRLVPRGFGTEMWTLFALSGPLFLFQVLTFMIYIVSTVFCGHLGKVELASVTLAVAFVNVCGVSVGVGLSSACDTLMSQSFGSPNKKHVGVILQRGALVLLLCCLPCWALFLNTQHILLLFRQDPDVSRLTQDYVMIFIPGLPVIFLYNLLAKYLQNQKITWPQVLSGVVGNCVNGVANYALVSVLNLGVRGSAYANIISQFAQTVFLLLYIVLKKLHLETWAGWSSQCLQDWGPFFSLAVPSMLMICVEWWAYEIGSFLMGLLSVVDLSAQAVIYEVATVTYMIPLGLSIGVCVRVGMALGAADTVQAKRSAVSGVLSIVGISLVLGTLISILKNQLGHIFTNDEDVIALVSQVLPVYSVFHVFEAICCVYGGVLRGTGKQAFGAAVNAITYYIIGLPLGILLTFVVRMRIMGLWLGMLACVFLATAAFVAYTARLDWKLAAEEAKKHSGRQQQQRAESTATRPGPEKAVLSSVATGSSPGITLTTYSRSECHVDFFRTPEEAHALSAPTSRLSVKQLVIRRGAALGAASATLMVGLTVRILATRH
- PROTOCOL_DETAILS: Uptake ratio in MATE2K-overexpressing HEK293 cells vs empty vector (2.5 μM, 1 min, HPLC-MS/MS)
- Assay type: cell-based
- APPLIED_CONDITIONS: fold uptake over empty vector, 2.5 μM, 1 min
Returns one of satisfied or not satisfied; satisfied when MATE2K ratio is >= 2.

In: Assess whether reported MATE2K ratio for CC(C)(C)NCC(O)c1ccc(O)c(CO)c1 (stereo not shown) [Salbutamol] sits at 2 or higher.
Out: satisfied

In: Assess whether reported MATE2K ratio for CCN1CCCC1CNC(=O)c1cc(S(=O)(=O)CC)c(N)cc1OC (stereo not shown) [Amisulpride] sits at 2 or higher.
Out: satisfied

In: Assess whether reported MATE2K ratio for N[C@@H](Cc1ccc(O)c(O)c1)C(=O)O sits at 2 or higher.
Out: not satisfied

In: Assess whether reported MATE2K ratio for OCc1cc(C(O)CNCCCCCCOCCCCc2ccccc2)ccc1O (stereo not shown) sits at 2 or higher.
Out: not satisfied

In: Assess whether reported MATE2K ratio for NC(=O)C1(N2CCCCC2)CCN(CCCC(=O)c2ccc(F)cc2)CC1 sits at 2 or higher.
Out: not satisfied

In: Assess whether reported MATE2K ratio for CCCS(=O)(=O)N[C@H]1C[C@@H](N(C)c2ncnc3[nH]ccc23)C1 sits at 2 or higher.
Out: not satisfied

In: Assess whether reported MATE2K ratio for CC(C)[N+](C)(CCOC(=O)C1c2ccccc2Oc2ccccc21)C(C)C sits at 2 or higher.
Out: satisfied

In: Assess whether reported MATE2K ratio for CCN(CC)C(=O)Nc1ccc(OCC(O)CNC(C)(C)C)c(C(C)=O)c1 (stereo not shown) sits at 2 or higher.
Out: satisfied

In: Assess whether reported MATE2K ratio for CNC1(C)C2CCC(C2)C1(C)C (stereo not shown) sits at 2 or higher.
Out: not satisfied

In: Assess whether reported MATE2K ratio for Clc1ccc(COC(Cn2ccnc2)c2ccc(Cl)cc2Cl)c(Cl)c1 (stereo not shown) sits at 2 or higher.
Out: not satisfied

In: Assess whether reported MATE2K ratio for CC(C)NC[C@H](O)COc1ccc(O)cc1 sits at 2 or higher.
Out: not satisfied

In: Assess whether reported MATE2K ratio for O=C(Nc1nc2cccc(-c3ccc(CN4CCS(=O)(=O)CC4)cc3)n2n1)C1CC1 sits at 2 or higher.
Out: not satisfied

In: Assess whether reported MATE2K ratio for CN1CCC[C@@H]1Cc1c[nH]c2ccc(CCS(=O)(=O)c3ccccc3)cc12 sits at 2 or higher.
Out: not satisfied

---

What MATE1 was measured for each of the following?
- TARGET_OF_ASSAY: MATE1 (Homo sapiens)
- Sequence (Q96FL8 whole entry): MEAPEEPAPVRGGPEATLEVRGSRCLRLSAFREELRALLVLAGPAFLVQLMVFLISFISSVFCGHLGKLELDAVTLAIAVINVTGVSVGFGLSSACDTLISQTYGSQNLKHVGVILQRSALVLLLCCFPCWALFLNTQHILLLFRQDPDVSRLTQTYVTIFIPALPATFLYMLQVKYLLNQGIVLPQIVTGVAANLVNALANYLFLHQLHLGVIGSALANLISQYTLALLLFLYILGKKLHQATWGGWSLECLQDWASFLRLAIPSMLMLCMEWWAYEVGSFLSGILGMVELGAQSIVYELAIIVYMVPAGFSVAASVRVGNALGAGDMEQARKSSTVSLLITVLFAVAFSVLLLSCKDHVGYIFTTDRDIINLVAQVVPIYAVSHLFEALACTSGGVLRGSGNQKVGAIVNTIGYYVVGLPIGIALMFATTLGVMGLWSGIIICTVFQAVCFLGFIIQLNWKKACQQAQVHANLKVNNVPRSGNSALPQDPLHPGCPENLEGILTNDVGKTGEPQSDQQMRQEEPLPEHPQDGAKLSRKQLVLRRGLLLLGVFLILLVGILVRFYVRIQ
- PROTOCOL_DETAILS: Uptake ratio in MATE1-overexpressing HEK293 cells vs empty vector (2.5 μM, 1 min, HPLC-MS/MS)
- Format: cell-based
Lab note: jot down the number only; don't add units.

In: What does the data say about its MATE1? Entry: COc1ccc([C@@H](CN(C)C)C2(O)CCCCC2)cc1 [Venlafaxine (S)]
Out: 1.22

In: What does the data say about its MATE1? Entry: O=C(O[C@H]1C[C@H]2CC[C@@H](C1)[N+]21CCCC1)C(O)(c1ccccc1)c1ccccc1
Out: 21.28

In: What does the data say about its MATE1? Entry: C1CCN2C[C@@H]3C[C@@H](CN4CCCC[C@@H]34)[C@H]2C1 [Sparteine (+), Sparteine]
Out: 1.62

In: What does the data say about its MATE1? Entry: CC[N+](CC)(CC)CC
Out: 25.44

In: What does the data say about its MATE1? Entry: COc1cc2c(cc1OC)[C@H](C)NCC2
Out: 1.24

In: What does the data say about its MATE1? Entry: C1CCN2C[C@H]3C[C@H](CN4CCCC[C@@H]34)[C@H]2C1 [Sparteine (-), Sparteine]
Out: 2.12

In: What does the data say about its MATE1? Entry: Cc1nc2n(c(=O)c1CCN1CCC(c3noc4cc(F)ccc34)CC1)CCCC2
Out: 1.07

In: What does the data say about its MATE1? Entry: CNCC(O)c1ccc(O)cc1.CNCC(O)c1ccc(O)cc1.O=C(O)C(O)C(O)C(=O)O (stereo not shown) [Synephrine]
Out: 6.5

In: What does the data say about its MATE1? Entry: COCCn1c2c([n+](Cc3cnccn3)c1C)C(=O)c1ccccc1C2=O
Out: 6.15

In: What does the data say about its MATE1? Entry: N[C@@H](Cc1c[nH]c2ccccc12)C(=O)O
Out: 0.82

In: What does the data say about its MATE1? Entry: COc1ccc([C@H](CN(C)C)C2(O)CCCCC2)cc1 [Venlafaxine (R)]
Out: 1.14

In: What does the data say about its MATE1? Entry: CC(C)c1cccc(C(C)C)c1O
Out: 0.64

In: What does the data say about its MATE1? Entry: C[N+]1(C)[C@@H]2C[C@@H](OC(=O)C(O)(c3cccs3)c3cccs3)C[C@H]1[C@@H]1O[C@@H]12
Out: 27.4

In: What does the data say about its MATE1? Entry: COc1ccc(C(CN(C)C)C2(O)CCCCC2)cc1 (stereo not shown)
Out: 1.22

In: What does the data say about its MATE1? Entry: COc1cccc(C2(O)CCCCC2CN(C)C)c1 (stereo not shown)
Out: 1.13

In: What does the data say about its MATE1? Entry: Cc1ccc(O)c(C(CCN(C(C)C)C(C)C)c2ccccc2)c1 (stereo in doubt) [Tolterodine (S)]
Out: 1.16

In: What does the data say about its MATE1? Entry: CCCCC[C@H](O)/C=C/[C@H]1[C@H](O)CC(=O)[C@@H]1C/C=C\CCCC(=O)O [Prostaglandin E2]
Out: 1.35

In: What does the data say about its MATE1? Entry: CC(CCc1ccc(O)cc1)NCC(O)c1ccc(O)cc1 (stereo not shown)
Out: 4.56

In: What does the data say about its MATE1? Entry: N[C@@H]1C[C@H]1c1ccccc1 (racemic)
Out: 1.45
